- Test Target: ZFP SBS#1484 (synthetic)
- Sequence (chain, as listed by the source): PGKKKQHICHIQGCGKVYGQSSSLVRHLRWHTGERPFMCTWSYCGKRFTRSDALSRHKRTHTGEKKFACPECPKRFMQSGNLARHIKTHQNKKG
- Test Method Notes: EMSA
- Condition Summary: tags: MBP fusion

| Binder | Unit String | Kd |
| --- | --- | --- |
| GAAGTGGTA (dsDNA) DNA 1: GAAGTGGTA DNA 2: TACCACTTC | nM | 0.01 |
